Molecular target: rBIIa/beta 1 sodium channels expressed in Xenopus oocytes (Rattus norvegicus)
Assay: Electrophysiological Assay 2: two-electrode voltage clamp in Xenopus oocytes
Conditions: apparent Ki for the inactivated state from single point inhibition data, read-out: RBIIA/β1 Ki
Counter-ions that a name gives are not always drawn.
What log10 Ki was measured for each of the following?
The common logarithm of Ki in µM is what is listed.

CCOC(=O)c1nccc(-c2ccc(Oc3ccc(F)cc3)cc2)n1	0.99

Hi, could you look up log10 Ki for each item in my list?
1. CNC=NC(=O)c1nccc(-c2ccc(Oc3ccc(F)cc3)cc2)n1 [hydrochloride]
2. COc1ccc(-c2cccc(C(N)=O)n2)cc1 [Compound 8f]
3. CSc1ccc(-c2cccc(C(N)=O)n2)cc1 [Compound 8d]
4. CC(C)c1ccc(-c2cccc(C(N)=O)n2)cc1 [Compound 8c]

1.06
1.38
1.72
1.62

Field: log10 Ki. Fill in for each record below.
1. O=C(NCCCl)c1nccc(-c2ccc(Oc3ccc(F)cc3)cc2)n1
2. CC(C)(C)c1ccc(-c2cccc(C(N)=O)n2)cc1 [Compound 8a]
3. COC(=O)c1nccc(-c2ccc(Oc3ccc(F)cc3F)cc2)n1

0.42
0.79
2.14

For the 7 compounds below, give their log10 Ki values.
1. O=CNC(=O)c1nccc(-c2ccc(Oc3ccc(F)cc3)cc2)n1
2. CCCCc1ccc(-c2cccc(C(N)=O)n2)cc1 [Compound 8b]
3. COC(=O)c1ccnc(-c2ccc(Oc3ccc(F)cc3)cc2)n1
4. Cc1nc(-c2ccc(Oc3ccc(F)cc3)cc2)ccc1C(N)=O
5. NC(=O)c1nccc(-c2ccc(Oc3ccc([N+](=O)[O-])cc3)cc2)n1
6. Fc1ccc(Oc2ccc(-c3ccnc(-c4ccno4)n3)cc2)cc1
7. COc1cc(C(=O)NCCN(C)C)nc(-c2ccc(Oc3ccc(F)cc3)cc2)c1 [Compound 19]

1: 0.55; 2: 1.02; 3: 1.85; 4: 0.93; 5: 0.05; 6: 0.42; 7: -0.49

----------
System: maximal electroshock-induced seizures (MES)
Assay: Maximum electroshock seizure test (MES), anticonvulsant evaluation
Assay type: in vivo
Settings: Mus musculus, po; mice, p.o., 30 minutes before the test; ED50 = dose protecting 50% of animals; read-out: MES p.o. ED50
Protocol: The compounds of the present invention may be tested for in vivo anticonvulsant activity after i.v., p.o. or i.p. injection using a number of anticonvulsant tests in mice, including the maximum electroshock seizure test (MES). […] The ability of 4-[4-(4-fluorophenoxy)phenyl]-pyrimidine-2-carboxamide to block maximal electroshock-induced seizures (MES) was determined according to the method above. […]
Decide using ED50 alone. Strictly below 6 mg/kg: Condition met. Equal to or above 6 mg/kg: Condition not met.

CN(C)C=NC(=O)c1ccnc(-c2ccc(Oc3ccc(Cl)cc3F)cc2)n1	Condition met
NC(=O)c1nccc(-c2ccc(Oc3ccc([N+](=O)[O-])cc3)cc2)n1	Condition not met
O=CNC(=O)c1nccc(-c2ccc(Oc3ccc(F)cc3)cc2)n1	Condition met
NC(=O)c1cccc(-c2ccc(Oc3ccccc3)cc2)n1	Condition not met
NC(=O)c1ccnc(-c2ccc(Oc3ccc(F)cc3)cc2)n1	Condition not met
NC(=O)c1nccc(-c2ccc(Oc3ccc(C(F)(F)F)cc3)cc2)n1	Condition met

Hello, is ED50 of the following compound strictly smaller than 6 mg/kg? NC(=O)c1ccnc(-c2ccc(Oc3ccc(Cl)cc3F)cc2)n1 Condition met

Determine if NC(=O)c1cccc(-c2ccc(Oc3ccc(F)cc3)cc2)n1 shows ED50 strictly lower than 6 mg/kg. Condition met

Is the reported ED50 for NC(=O)c1nccc(-c2ccc(Oc3ccc(F)cc3F)cc2)n1 strictly below 6 mg/kg? Condition met

Answer whether the compound NC(=O)c1nccc(-c2ccc(Oc3ccc(F)cc3)cc2)n1 has ED50 strictly less than 6 mg/kg Condition met
